Test: Observed AUC infinity in male ICR mouse at 25 mg/kg, po measured upto 24 hrs by LC-MS/MS analysis
Type: ADME, organism-based
Settings: in vivo
Recorded Metric: AUC(0-inf) (µg·h/mL)
Could you give me the number in µg·h/mL? Just the number is fine.

q: For the molecule O=c1ccc2c(N3C[C@@H]4[C@@H](CCP(=O)(O)O)[C@@H]4C3)ncnc2[nH]1 , give its reported AUC(0-inf).
a: 0.965

###

Test: Observed MRT infinity in male ICR mouse at 25 mg/kg, po measured upto 24 hrs by LC-MS/MS analysis
Type: ADME, organism-based
Conditions: in vivo
Recorded Metric: MRT inf (h)
Could you give me the number in h? Just the number is fine.

q: For the compound O=c1ccc2c(N3C[C@@H]4[C@@H](CCP(=O)(O)O)[C@@H]4C3)ncnc2[nH]1 , give its reported MRT inf.
a: 2.6
